- system name: Serine/threonine-protein kinase mTOR (Homo sapiens)
recorded endpoint: IC50

1. Oc1cccc(Nc2nc3ccccc3n2-c2ncnc(NCC(F)(F)F)n2)c1 | > 50 µM
2. Cc1nc(N)nc(-n2c(Nc3ccnn3C)nc3ccccc32)n1 | > 50 µM
3. COc1nc(NCC#N)nc(-n2c(Nc3cccc(O)c3)nc3ccccc32)n1 | > 50 µM

From: ChEMBL document CHEMBL1759974
